Please go through the items and note down their % displacement at 10 nM.
- tested_system: human cloned somatostatin receptor 4 (human) (UniProt P31391)
- Sequence (P31391 whole entry): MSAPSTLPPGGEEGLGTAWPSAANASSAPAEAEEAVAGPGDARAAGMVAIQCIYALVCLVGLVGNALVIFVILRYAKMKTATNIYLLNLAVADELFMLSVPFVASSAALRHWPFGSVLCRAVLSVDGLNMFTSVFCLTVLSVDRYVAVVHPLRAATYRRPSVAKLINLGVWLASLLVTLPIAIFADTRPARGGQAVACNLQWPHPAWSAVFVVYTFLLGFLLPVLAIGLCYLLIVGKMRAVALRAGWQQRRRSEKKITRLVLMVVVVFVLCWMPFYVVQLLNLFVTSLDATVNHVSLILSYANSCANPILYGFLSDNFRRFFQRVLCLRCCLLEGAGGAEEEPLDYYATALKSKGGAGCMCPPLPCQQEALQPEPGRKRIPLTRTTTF
- method_description: 125I-Tyr11-SRIF-14 displacement
*1 amine or outer side, *2 acyl side, *3 side chain or, on linkers, in order; H or OH if unused. Bridges are numbered along the chain shown (N, C = ends). [ ]: non-standard residue; d: D form. The star is where a group is joined. DOTA = O=C(O)CN1CCN(CC(=O)O)CCN(CC(=O)*)CCN(CC(=O)O)CC1; N(2-mercaptoethyl)Gly = O=C(CN(CCS[*:3])[*:1])[*:2]; Aoc = NCCCCCCCC(=O)O; CPT = camptothecin; GABA = NCCCC(=O)O
The reply should be a number in %, with the unit left off.

I am curious: what % displacement at 10 nM value has been reported for {CPT-Aoc}-[dF]RCF[dW]KTF[N(2-mercaptoethyl)Gly]-NH2 (disulfide 3-9) [SEQ ID NO: 27] ?
0

Given the entry {DOTA-GABA}-[dF]RCF[dW]KTF[N(2-mercaptoethyl)Gly]-NH2 (disulfide 3-9; also: Ga complex of DOTA) [SEQ ID NO: 8] , report its measured % displacement at 10 nM.
4

Using the record for {DOTA}-[dF]KCF[dW]KTF[N(2-mercaptoethyl)Gly]-NH2 (disulfide 3-9; SMILES C[C@@H](O)[C@@H]1NC(=O)[C@H](CCCCN)NC(=O)[C@@H](Cc2c[nH]c3ccccc23)NC(=O)[C@H](Cc2ccccc2)NC(=O)[C@@H](NC(=O)[C@H](CCCCN)NC(=O)[C@@H](Cc2ccccc2)NC(=O)CN2CCN(CC(=O)O)CCN(CC(=O)O)CCN(CC(=O)O)CC2)CSSCCN(CC(N)=O)C(=O)[C@H](Cc2ccccc2)NC1=O) [SEQ ID NO: 9] , report its % displacement at 10 nM.
0
